GI50 listing for selected compounds.
system: COLO 205 colon; experiment: NCI tumour cell line growth inhibition, 48 h
reported_metric: GI50

>  <compound>
O=[N+]([O-])c1cccc(-c2ncc(-c3ccc(Cl)cc3Cl)[nH]2)c1

>  <reported_metric>
GI50

>  <measured_result>
3450 nM

$$$$
>  <compound>
Cc1ccc(OCCCCCCNCCO)c(C)c1

>  <reported_metric>
GI50

>  <measured_result>
10000 nM

$$$$
>  <compound>
CCCCCCN(CCCCCC)CC(O)c1cccc2ccc(Cl)cc12 (stereo not drawn)

>  <reported_metric>
GI50

>  <measured_result>
3820 nM

$$$$
>  <compound>
N#Cc1ccc(N2Cc3cc(Cl)ccc3OC3=C2C(=O)N(Cc2ccccc2)C3=O)cc1

>  <reported_metric>
GI50

>  <measured_result>
1210 nM

$$$$
>  <compound>
CCOC(=O)Cc1csc(NC(=O)C(OC(=O)c2ccc(N)cc2)c2ccccc2)n1 (stereo not drawn)

>  <reported_metric>
GI50

>  <measured_result>
46200 nM

$$$$
>  <compound>
COC1C(CO)OC(n2c3ccccc3c3c4c(c5c6ccccc6[nH]c5c32)C(=O)NC4=O)C(O)C1OC(=O)C(N)CCCCN (stereo not drawn)

>  <reported_metric>
GI50

>  <measured_result>
1270 nM

$$$$
>  <compound>
CCN(CC)CCOc1ccc(C2=C(c3ccccc3)CCc3cc(OC)ccc32)cc1

>  <reported_metric>
GI50

>  <measured_result>
1530 nM

$$$$
>  <compound>
COc1cc(C(=O)/C=C/c2c(C(F)(F)F)nc3sccn23)cc(OC)c1OC

>  <reported_metric>
GI50

>  <measured_result>
1940 nM

$$$$

====

The reader will find reported TGI values listed item by item below.
tested on: MCF7 breast; experiment: NCI tumour cell line growth inhibition, 48 h

>  <compound>
O=C(CCCN1CCc2[nH]c3cc(F)ccc3c2C1)c1ccc(F)cc1

>  <relation_sign>
=

>  <TGI [µM]>
18.3

$$$$
>  <compound>
C[C@@H](C[C@@H](O)[C@H](O)C(C)(C)O)[C@H]1CC=C2[C@]3(C)[C@H](O)C[C@H]4C(C)(C)[C@H](O)CC[C@]4(C)[C@H]3CC[C@@]21C

>  <relation_sign>
=

>  <TGI [µM]>
36.7

$$$$
>  <compound>
CN(C)CCNC(=O)c1cccc2c(NC(CS)C(=O)O)c3ccccc3nc12 (stereo not given)

>  <relation_sign>
=

>  <TGI [µM]>
29.5

$$$$
>  <compound>
C#Cc1ccc(-n2c(/C=C/c3cc(OC)c(OC)c(OC)c3)nc3ncccc3c2=O)cc1

>  <relation_sign>
>

>  <TGI [µM]>
100

$$$$
>  <compound>
OCCCCC#Cc1ccccc1C#Cc1cnccn1

>  <relation_sign>
>

>  <TGI [µM]>
100

$$$$
>  <compound>
O=c1[nH]c(-c2ccccn2)nc2sc3c(c12)CCCCCC3

>  <relation_sign>
>

>  <TGI [µM]>
100

$$$$
>  <compound>
C=CCN1C(=O)/C(=C/c2ccc(Cl)cc2)N=C1SC1OC(COC(C)=O)C(OC(C)=O)C(OC(C)=O)C1OC(C)=O (stereo not given)

>  <relation_sign>
>

>  <TGI [µM]>
100

$$$$
>  <compound>
CCC1(O)CN(CCOC)[C@H]2C[C@@H]1C(=O)c1[nH]c3ccccc3c12 (stereo not given in full)

>  <relation_sign>
>

>  <TGI [µM]>
100

$$$$
>  <compound>
CN1C(=O)C23CC4=CC=CC(O)C4N2C(=O)C1(CO)SS3 (stereo not given)

>  <relation_sign>
=

>  <TGI [µM]>
0.371

$$$$
>  <compound>
C=CCOn1c(C=C)nc2c(C)cccc21

>  <relation_sign>
=

>  <TGI [µM]>
12.5

$$$$

====

test system: MDA-MB-231 breast; assay: NCI tumour cell line growth inhibition, 48 h
Where a SMILES comes first, the peptide text is derived from it. [ ]: non-standard residue; d: D form. The star is where a group is joined. Phe(4-NO2) = N[CH](Cc1ccc([N+](=O)[O-])cc1)C(=O)O; Boc = CC(C)(C)OC(=O)*; OtBu = CC(C)(C)O*

>  <molecule>
Cc1ccc(S(=O)(=O)NC(=O)NS(=O)(=O)O)cc1

>  <TGI>
> 100 µM

$$$$
>  <molecule>
Cc1ccc(OCCCCCCNCCO)c(C)c1

>  <TGI>
25.5 µM

$$$$
>  <molecule>
CC1SC2(CCCCC2)N(NC(=O)c2[nH]c3ccc(F)cc3c2-c2ccccc2)C1=O (centres undefined)

>  <TGI>
> 100 µM

$$$$
>  <molecule>
COC1=CC2(C=CC1=O)CCN=c1c(O)c3c(c(O)c12)=NC=N3 (centres undefined)

>  <TGI>
> 100 µM

$$$$
>  <molecule>
COC(=O)C(Cc1ccc([N+](=O)[O-])cc1)NC(=O)C(CC(=O)OC(C)(C)C)NC(=O)OC(C)(C)C (centres undefined) (Boc-Asp(OtBu)-[Phe(4-NO2)]-OMe; configuration not given here)

>  <TGI>
68.4 µM

$$$$
>  <molecule>
C=C1c2nc3ccccc3n2C=C(c2ccccc2)N1c1ccc(OC)cc1

>  <TGI>
> 100 µM

$$$$
>  <molecule>
O=C(CCCN1CCc2[nH]c3cc(F)ccc3c2C1)c1ccc(F)cc1

>  <TGI>
25.5 µM

$$$$
>  <molecule>
O=C(O)CCCc1nc2c(n1-c1ccccc1)C(=O)c1ccccc1C2=O

>  <TGI>
> 100 µM

$$$$
>  <molecule>
CC(=O)Oc1ccc2c(c1)c1c(OC(C)=O)c3ccccc3c(OC(C)=O)c1n2Cc1cccc(C)c1

>  <TGI>
> 100 µM

$$$$

====

system: SK-MEL-28 melanoma; experiment: NCI tumour cell line growth inhibition, 48 h
reported_metric: TGI

>  <compound>
COc1cc2c(cc1OC)C1Cc3ccccc3CN1CCC2 (stereo not drawn)

>  <reported_metric>
TGI

>  <measured_result>
> 100 µM

$$$$
>  <compound>
CCOC(=N)CC(=O)NC(C)c1ccccc1 (stereo not drawn)

>  <reported_metric>
TGI

>  <measured_result>
> 100 µM

$$$$
>  <compound>
C/C(=N\O)c1ccc(Nc2c3ccccc3nc3occc23)cc1

>  <reported_metric>
TGI

>  <measured_result>
> 18.5 µM

$$$$
>  <compound>
C[C@]12CC[C@@H]3c4ccc(O)cc4CC[C@H]3[C@@H]1CC[C@@H]2NS(=O)(=O)c1ccc(-c2ccccc2)cc1

>  <reported_metric>
TGI

>  <measured_result>
54.6 µM

$$$$
>  <compound>
COc1ccccc1NC(=O)C(=O)C1C(=O)Nc2ccccc2S1=O (stereo not drawn)

>  <reported_metric>
TGI

>  <measured_result>
> 100 µM

$$$$
>  <compound>
C=C(C)[C@@H]1CCC[C@]2(C(=O)O)CC[C@]3(C)[C@@H](CC[C@@H]4[C@@]5(C)C/C(=C/c6ccncc6)C(=O)C(C)(C)[C@@H]5CC[C@]43C)[C@@H]12

>  <reported_metric>
TGI

>  <measured_result>
4.58 µM

$$$$
>  <compound>
C=C(CC1(CC(=C)c2ccc(C(=O)O)cc2)C(=O)N(C)C(=O)N(C)C1=O)c1ccc(C(=O)O)cc1

>  <reported_metric>
TGI

>  <measured_result>
> 100 µM

$$$$
>  <compound>
CC(=O)OCC1OC(n2c3c(c(-c4ccco4)c(C#N)c2=S)CCCC3)C(OC(C)=O)C(OC(C)=O)C1OC(C)=O (stereo not drawn)

>  <reported_metric>
TGI

>  <measured_result>
> 31.6 µM

$$$$
>  <compound>
CC(=O)c1nccc2c1c(C)nc1ccccc12

>  <reported_metric>
TGI

>  <measured_result>
> 100 µM

$$$$
>  <compound>
CC(C)(C)c1ccc(S(=O)(=O)N[C@H]2CC[C@H]3[C@@H]4CCc5cc(O)ccc5[C@H]4CC[C@]23C)cc1

>  <reported_metric>
TGI

>  <measured_result>
3.18 µM

$$$$
>  <compound>
O=C(CN=Cc1cccs1)CSC(c1ccccc1)c1ccccc1

>  <reported_metric>
TGI

>  <measured_result>
> 100 µM

$$$$
>  <compound>
CCCCCCCC(CC(=O)O)OC(=O)CC(CCCCCCC)OC1OC(C)C(O)C(O)C1OC1OC(C)C(O)C(O)C1O (stereo not drawn)

>  <reported_metric>
TGI

>  <measured_result>
> 100 µM

$$$$
>  <compound>
Cc1cc2c(cc1Cl)SC1=NN(C)C(c3ccccc3O)N1S2(=O)=O (stereo not drawn)

>  <reported_metric>
TGI

>  <measured_result>
> 100 µM

$$$$
>  <compound>
Cc1nn(C(=O)c2ccccc2O)c2c1C(c1ccc(O)cc1)SC(N)=N2 (stereo not drawn)

>  <reported_metric>
TGI

>  <measured_result>
> 10 µM

$$$$
>  <compound>
C/C(=C/CC[C@](C)(OC1OC(CO)C(O)C(O)C1O)[C@H]1CC[C@]2(C)[C@@H]1CC[C@@H]1[C@@]3(C)CC[C@H](O)C(C)(C)[C@@H]3C[C@H](O)[C@]12C)CO (stereo partly drawn)

>  <reported_metric>
TGI

>  <measured_result>
38.5 µM

$$$$
>  <compound>
CN(C)CCNC(=O)c1cccc2c(NC(CS)C(=O)O)c3ccccc3nc12 (stereo not drawn)

>  <reported_metric>
TGI

>  <measured_result>
35.7 µM

$$$$
>  <compound>
O=C1N2CCc3c([nH]c4ccccc34)C23CC2CCCC12S3 (stereo not drawn)

>  <reported_metric>
TGI

>  <measured_result>
> 50 µM

$$$$
>  <compound>
O=C(CC(C(=O)O)N1CCOCC1)c1ccccc1 (stereo not drawn)

>  <reported_metric>
TGI

>  <measured_result>
36.6 µM

$$$$

Hello, the source for this data is PubChem BioAssay (NCI), in case you need it.
